// data source = paper PMC2756588

Target: T1, Lsb3, P43603
T1 sequence (P43603 385-451, looked up): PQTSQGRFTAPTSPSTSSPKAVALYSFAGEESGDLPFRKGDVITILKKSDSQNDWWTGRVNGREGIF
Assay: SPOT array
Details: median of control spots 406
reported_property: SPOT intensity
Answers are plain numbers.

# binder, SPOT intensity
rows = [
    ("VPPPMQPPPIESSNL", 0),
    ("NMLKKKPLKKPLKRF", 2),
    ("APPPPPRRATPEKKP", 432),
]

Hi, could you look up SPOT intensity for each item in my list?
1. RPKRRAPPPVPKKPS
2. RAPPPVPKKPSSRIA
3. SSSSTPPTLPPRRIE

1. 298
2. 415
3. 1090

Hi, could you look up SPOT intensity for each item in my list?
1. NVLRKILEIPLHSFS
2. RSVKRPRRAPRPVVS
3. RRSKSLPITPKSIFN
4. ILARAILTIPRVLDK
5. RKRRTHLRLPLIRSN
6. LRWRHKFFLPAIAAI
7. NSVPIMPTLPPRPYI

1. 0
2. 52
3. 0
4. 8
5. 0
6. 0
7. 242

Hi, could you look up SPOT intensity for each item in my list?
1. RPVPRRPSQPLNTLS
2. LLRRTIPKRPFYHVL

138
2
